Molecular target: Sodium-dependent dopamine transporter (Homo sapiens, UniProt Q01959)
Sequence (Q01959 whole entry): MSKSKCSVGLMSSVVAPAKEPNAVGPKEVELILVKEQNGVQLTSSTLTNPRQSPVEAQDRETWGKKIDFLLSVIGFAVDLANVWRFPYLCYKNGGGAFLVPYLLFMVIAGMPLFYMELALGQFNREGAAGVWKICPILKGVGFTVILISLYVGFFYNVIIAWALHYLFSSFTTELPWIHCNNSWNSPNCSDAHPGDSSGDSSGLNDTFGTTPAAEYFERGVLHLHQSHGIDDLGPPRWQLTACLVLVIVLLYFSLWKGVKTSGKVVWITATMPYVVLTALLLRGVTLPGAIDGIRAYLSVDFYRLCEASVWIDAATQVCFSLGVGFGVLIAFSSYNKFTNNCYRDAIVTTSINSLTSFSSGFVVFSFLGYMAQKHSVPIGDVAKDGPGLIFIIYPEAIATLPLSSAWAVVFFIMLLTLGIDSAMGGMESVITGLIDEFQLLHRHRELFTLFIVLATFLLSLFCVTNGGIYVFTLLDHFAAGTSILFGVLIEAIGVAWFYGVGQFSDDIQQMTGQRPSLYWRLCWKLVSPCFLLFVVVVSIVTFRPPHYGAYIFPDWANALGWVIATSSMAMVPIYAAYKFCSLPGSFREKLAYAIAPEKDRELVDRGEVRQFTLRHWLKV
Assay: Compound was evaluated for binding affinity to dopamine transporter using [125I]RTI-55 as a radioligand in HEK cells expressing human transporters.
Assay type: cell-based, HEK293
Would you kindly list Ki for each of these molecules?
# value in µM; strip the unit string

## Task Bench note: what Ki did `COC(=O)[C@H]1C2CC[C@@H]3C[C@@H]1/C(=C/c1ccccc1)CN23` show?
## Result 1.57

## Task Bench note: what Ki did COC(=O)[C@H]1C2CC[C@@H]3C[C@@H]1/C(=C/c1ccc(Cl)c(Cl)c1)CN23 (stereo in doubt; 5b) show?
## Result 3.32

## Task Bench note: what Ki did `COC(=O)[C@H]1C2CC[C@@H]3C[C@@H]1/C(=C/c1ccc(OC)cc1)CN23` show?
## Result 3.6

The values you see were collected from ChEMBL document CHEMBL1133189.
